# measurement target: HDAC2 (Homo sapiens, UniProt Q92769)
# Sequence (Q92769 whole entry): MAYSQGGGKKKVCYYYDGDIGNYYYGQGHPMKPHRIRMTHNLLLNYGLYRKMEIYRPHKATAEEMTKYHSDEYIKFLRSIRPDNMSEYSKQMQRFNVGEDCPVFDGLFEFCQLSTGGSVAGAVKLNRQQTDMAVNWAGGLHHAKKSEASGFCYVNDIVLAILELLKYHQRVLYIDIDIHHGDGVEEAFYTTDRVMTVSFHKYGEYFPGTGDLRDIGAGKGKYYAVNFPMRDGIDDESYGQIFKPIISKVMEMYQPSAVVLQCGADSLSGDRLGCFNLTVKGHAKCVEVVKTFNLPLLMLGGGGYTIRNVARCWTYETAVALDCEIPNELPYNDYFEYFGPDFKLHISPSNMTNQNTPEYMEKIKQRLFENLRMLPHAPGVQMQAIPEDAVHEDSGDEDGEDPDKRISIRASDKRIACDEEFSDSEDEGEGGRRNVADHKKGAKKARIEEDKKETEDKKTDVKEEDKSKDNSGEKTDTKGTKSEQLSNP
# assay summary: HDAC2 recombinant enzymatic assay
# Format: biochemical
# Parameters: purchased BPS Bioscience
# measurement context: 5 h pre-incubation, 5 nM enzyme; read-out: HDAC recombinant enzymatic IC50 HDAC2
pIC50: −log10 of the molar value.

| compound | measurement target | pIC50 |
| --- | --- | --- |
| Nc1ccc(-c2ccc(F)cc2)cc1NC(=O)N1Cc2nccnc2C1 [Comparator A] | HDAC2 (Homo sapiens, UniProt Q92769) | 6.85 |
| Cc1cc2c(cn1)CN(C(=O)Nc1nc(-c3ccc(F)cc3)ccc1N)C2 [Comparator H] | HDAC2 (Homo sapiens, UniProt Q92769) | 6.67 |
| Nc1ccc(-c2ccc(F)cc2)nc1NC(=O)N1Cc2cncnc2C1 [Comparator D] | HDAC2 (Homo sapiens, UniProt Q92769) | 6.20 |
| Nc1ccc(-c2ccc(F)cc2)nc1NC(=O)N1Cc2ccncc2C1 [Comparator G] | HDAC2 (Homo sapiens, UniProt Q92769) | 6.47 |
| Nc1ccc(-c2cccs2)nc1NC(=O)N1Cc2cncnc2C1 [Comparator E] | HDAC2 (Homo sapiens, UniProt Q92769) | 6.29 |
